Experimental Target: SMYD3 (Homo sapiens (Human), UniProt Q9H7B4)
Run Description: SMYD3 biochemical assay (SPA, 3H-SAM methylation of MEKK2 protein substrate)
Condition Description: read-out: SMYD3 Biochem IC50*
Property Name: pIC50
One number for each entry, as −log10 of the molar value.

CC1CC(CS(=O)(=O)N2[C@@H]3CC[C@H]2C[C@@H](NC(=O)c2cc(C4CC4)on2)C3)CC(C)N1 (stereo partly drawn): 8.15
CCC1CN(C)CCN1S(=O)(=O)N1[C@@H]2CC[C@H]1C[C@@H](NC(=O)c1cc(C3CC3)on1)C2 (stereo partly drawn): 7.08

Recall the recorded pIC50 for `CC(C)CN1C2CCC1CN(S(=O)(=O)N1[C@@H]3CC[C@H]1C[C@@H](NC(=O)c1cc(C4CC4)on1)C3)C2` with SMYD3 (Homo sapiens (Human), UniProt Q9H7B4) and state it. 8.06
